Assay: Clearance in rat liver microsomes
Format: ADME, Microsome
Conditions: read-out: CLH
The label is yes (1) for microsomal CLint below 80 µL/min/mg and no (0) for microsomal CLint equal to or exceeding 80 µL/min/mg.

Field: below-cutoff. Rule: recorded microsomal CLint strictly less than 80 µL/min/mg. Subject: COc1cccc(C(=O)NCCNC(=O)[C@H](CC(=O)NC(C)(C)C)NS(=O)(=O)c2ccc(C)cc2)c1
no (0)

Field: below-cutoff. Rule: recorded microsomal CLint strictly less than 80 µL/min/mg. Subject: Cc1ccc(S(=O)(=O)N[C@@H](CC(=O)NC(C)(C)C)C(=O)NCCNC(=O)c2ccccc2F)cc1
no (0)

Determine whether this molecule shows microsomal CLint lower than 80 µL/min/mg (ties excluded): C#Cc1cccc(C(=O)NCCNC(=O)[C@H](CC(=O)NC(C)(C)C)NS(=O)(=O)c2ccc(C)cc2)c1
yes (1)

Lab note: confirm whether the reported microsomal CLint for this molecule is below 80 µL/min/mg, equality not counting. molecule: Cc1ccc(S(=O)(=O)N[C@@H](CC(=O)NC(C)(C)C)C(=O)NCCNC(=O)c2ccccc2)cc1
yes (1)
